Data provenance: a melting point compilation (Tetko et al.)

Observation type: melting point

A selection of reference data follows.
- Cpd smiles: "COc1c(C(=O)Cl)csc1Br"
  melting point: "79 to 82 °C"
- Cpd smiles: "C[Si](C)(C)C#Cc1ccccn1"
  melting point: "42 to 45 °C"
- Cpd smiles: "CCOc1cccc2cc(C(=O)O)c(=O)oc12"
  melting point: "190 to 192 °C"
- Cpd smiles: "BrCC12CC3CC(CC(C3)C1)C2"
  melting point: "30 to 32 °C"
- Cpd smiles: "Nc1ncnc2[nH]cnc12"
  melting point: "360 to 365 °C"

Answer with the recorded melting point for the compound listed here: `Cc1ccc(S(=O)(=O)CC(=O)c2ccccc2)cc1`
109 to 110 °C
